Entries annotated with measured breakthrough time Mutated GPR17-IAM (Table 5)
tested-target: mutated GPR17 receptor (Arg255Ile) (Homo sapiens, UniProt Q13304, R283I)
Sequence (Q13304 29-367 R283I): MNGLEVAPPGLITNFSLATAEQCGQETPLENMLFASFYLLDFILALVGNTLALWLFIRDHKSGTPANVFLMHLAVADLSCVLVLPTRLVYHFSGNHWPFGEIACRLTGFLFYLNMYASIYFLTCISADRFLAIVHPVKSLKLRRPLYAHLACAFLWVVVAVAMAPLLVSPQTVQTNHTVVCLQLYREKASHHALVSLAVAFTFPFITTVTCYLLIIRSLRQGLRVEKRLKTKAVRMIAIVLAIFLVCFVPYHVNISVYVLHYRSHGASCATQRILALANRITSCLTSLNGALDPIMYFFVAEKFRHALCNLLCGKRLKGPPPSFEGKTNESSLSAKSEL
assay-remarks: FAC-MS screening on mutated GPR17-IAM column
Type: binding
applied-conditions: Library A, 1 µM each, mutated GPR17-IAM column (19.5 million cells)
observation-type: breakthrough time Mutated GPR17-IAM (Table 5)

[
  {
    "compound": "CCCCC#Cc1cn([C@@H]2O[C@H](COP(=O)(O)OP(=O)(O)O)[C@@H](O)[C@H]2O)c(=O)[nH]c1=O [Compound 14, 5-Hexynyluridine Diphosphate]",
    "reported-value": 2.90
  },
  {
    "compound": "CSCCNc1nc(SCCC(F)(F)F)nc2c1ncn2[C@@H]1O[C@H](COP(=O)([O-])OP(=O)([O-])C(Cl)(Cl)P(=O)([O-])[O-])[C@@H](O)[C@H]1O.[Na+].[Na+].[Na+].[Na+] [Cangrelor, cangrelor, reference compound]",
    "reported-value": 13.16
  },
  {
    "compound": "O=c1ccn([C@@H]2O[C@H](COP(=O)([O-])OP(=O)([O-])[O-])[C@@H](O)[C@H]2O)c(=O)[nH]1.[Na+].[Na+].[Na+] [UDP, uridine diphosphate]",
    "reported-value": 2.15
  },
  {
    "compound": "N.N.N.O=c1[nH]c(=O)n([C@@H]2O[C@H](COP(=O)(O)OP(=O)(O)O)[C@@H](O)[C@H]2O)cc1I",
    "reported-value": 2.51
  },
  {
    "compound": "N.N.N.N.Nc1nc(C#Cc2ccccc2)nc2c1ncn2[C@@H]1O[C@H](COP(=O)(O)OP(=O)(O)OP(=O)(O)O)[C@@H](O)[C@H]1O",
    "reported-value": 16.07
  }
]
